Below, each entry is listed alongside its reported pEC50.
- test.method.notes: Cytotoxicity against human MCF7 cells measured after 96 hrs by SRB assay
- Format: functional, cell-based
- test.parameters: MCF7, 96 h
Bear in mind: pEC50 is minus log10 of a mol/L concentration; give just that figure.

1) CC(=O)O[C@H]1C[C@]2(C)[C@H]3CC=C4[C@@H]5CC(C)(C)CC[C@]5(C(=O)O)CC[C@@]4(C)[C@]3(C)CC[C@H]2C(C)(C)[C@H]1OC(C)=O = 4.79
2) CC(=O)O[C@H]1C[C@]2(C)[C@H]3CC=C4[C@@H]5CC(C)(C)CC[C@]5(C(=O)Nc5ccncc5)CC[C@@]4(C)[C@]3(C)CC[C@H]2C(C)(C)[C@H]1OC(C)=O = 5.51
3) CC(=O)O[C@H]1C[C@]2(C)[C@H]3CC=C4[C@@H]5[C@@H](C)[C@H](C)CC[C@]5(C(=O)Nc5cnc6ccccc6c5)CC[C@@]4(C)[C@]3(C)CC[C@H]2C(C)(C)[C@H]1OC(C)=O = 5.49

Alright, here's another compound for you.
Enquiry: For CC(=O)O[C@H]1C[C@]2(C)[C@H]3CC=C4[C@@H]5CC(C)(C)CC[C@]5(C(=O)Nc5cccnc5)CC[C@@]4(C)[C@]3(C)CC[C@H]2C(C)(C)[C@H]1OC(C)=O , what is its reported pEC50?
Return: 5.70

====

- test.method.notes: Cytotoxicity against human A2780 cells measured after 96 hrs by SRB assay
- Format: functional, cell-based
- test.parameters: A2780, 96 h
measured.parameter: pEC50
Bear in mind: pEC50 is minus log10 of a mol/L concentration; give just that figure.

1) CC(=O)O[C@H]1C[C@]2(C)[C@H]3CC=C4[C@@H]5[C@@H](C)[C@H](C)CC[C@]5(C(=O)Nc5cccc6ncccc56)CC[C@@]4(C)[C@]3(C)CC[C@H]2C(C)(C)[C@H]1OC(C)=O = 5.57
2) CC(=O)O[C@H]1C[C@]2(C)[C@H]3CC=C4[C@@H]5CC(C)(C)CC[C@]5(C(=O)Nc5cccc6ncccc56)CC[C@@]4(C)[C@]3(C)CC[C@H]2C(C)(C)[C@H]1OC(C)=O = 6.15
3) CC(=O)OC[C@@]1(C)[C@@H]2CC[C@]3(C)[C@H](CC=C4[C@@H]5[C@@H](C)[C@H](C)CC[C@]5(C(=O)Nc5cccc6ncccc56)CC[C@]43C)[C@@]2(C)C[C@@H](OC(C)=O)[C@@H]1OC(C)=O = 6.40
4) CC(=O)O[C@H]1C[C@]2(C)[C@H]3CC=C4[C@@H]5[C@@H](C)[C@H](C)CC[C@]5(C(=O)O)CC[C@@]4(C)[C@]3(C)CC[C@H]2C(C)(C)[C@H]1OC(C)=O = 4.75

Enquiry: For CC(=O)O[C@H]1C[C@]2(C)[C@H]3CC=C4[C@@H]5CC(C)(C)CC[C@]5(C(=O)Nc5cccc6cccnc56)CC[C@@]4(C)[C@]3(C)CC[C@H]2C(C)(C)[C@H]1OC(C)=O , what is its reported pEC50?
Return: 5.29

====

- test.method.notes: Cytotoxicity against human A2780 cells measured after 96 hrs by SRB assay
- Type: functional, cell-based
- test.parameters: A2780, 96 h
measured.parameter: pEC50
Bear in mind: pEC50 is minus log10 of a mol/L concentration; give just that figure.

Enquiry: For CC(=O)O[C@H]1C[C@]2(C)[C@H]3CC=C4[C@@H]5[C@@H](C)[C@H](C)CC[C@]5(C(=O)Nc5cccnc5)CC[C@@]4(C)[C@]3(C)CC[C@H]2C(C)(C)[C@H]1OC(C)=O , what is its reported pEC50?
Return: 5.70
